Values from patent US20230078764A1

# assay_target: human SCD1 (Homo sapiens, UniProt O00767)
# Construct: expressed in transfected cells; host or cells: yeast strain with OLE1 deleted, plasmid-borne human SCD1 (selected in SD-Ura)
# Sequence (O00767 whole entry): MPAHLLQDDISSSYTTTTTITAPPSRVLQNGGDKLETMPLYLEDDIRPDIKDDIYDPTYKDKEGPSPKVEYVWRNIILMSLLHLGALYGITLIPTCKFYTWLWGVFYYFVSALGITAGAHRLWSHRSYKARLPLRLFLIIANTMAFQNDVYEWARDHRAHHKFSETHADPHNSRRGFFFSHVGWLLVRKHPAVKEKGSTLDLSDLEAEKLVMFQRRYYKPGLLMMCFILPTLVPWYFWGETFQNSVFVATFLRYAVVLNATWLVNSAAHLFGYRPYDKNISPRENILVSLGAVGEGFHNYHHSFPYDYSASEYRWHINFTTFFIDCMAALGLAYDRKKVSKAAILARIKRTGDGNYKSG
# measurement_description: Growth inhibition of yeast strain expressing human SCD1 as sole desaturase (OLE1 deleted), OD600 readout
# Type: cell-based
# experimental_context: yeast strain expressing human SCD1 as sole desaturase; growth (OD600) after 40 h at 30° C.; read-out: SCD1 IC50
pIC50: −log10 of the molar value.
Quick rule: pIC50 of at least 7 means TRUE, below that means FALSE.

Some entries whose results are on file:
# compound, assay_target, group_label
data = [
    ("Cn1cc(C(=O)Nc2ccc(Cc3cccc(C(F)F)c3)cn2)ccc1=O", "human SCD1 (Homo sapiens, UniProt O00767)", "FALSE"),
    ("CN1N=C(C(=O)Nc2ccc(Oc3ccccc3Cl)cn2)CCC1=O", "human SCD1 (Homo sapiens, UniProt O00767)", "FALSE"),
    ("CN1N=C(C(=O)Nc2ccc(Cc3cccc(F)c3)cc2)CCC1=O", "human SCD1 (Homo sapiens, UniProt O00767)", "FALSE"),
    ("O=C(Nc1ccc(Cc2cccc(F)c2)cn1)c1ccc(=O)n(C2CC2)c1", "human SCD1 (Homo sapiens, UniProt O00767)", "FALSE"),
    ("Cc1ccc(C(=O)Nc2ccc(Cc3cc(F)cc(F)c3)cn2)nn1", "human SCD1 (Homo sapiens, UniProt O00767)", "FALSE"),
]

Is the recorded value of pIC50 equal to or greater than 7 for this compound? CC(O)c1cnc(C(=O)Nc2ccc(Cc3ccc(F)c(F)c3)cn2)nc1 (centres unmarked)
TRUE

Please tell me: is the compound Cn1nc(C(=O)Nc2ncc(Cc3cccc(Cl)c3)s2)ccc1=O at or over 7 in terms of pIC50?
TRUE
